Taken from the supplement of paper PMC13207355.

# Tested on: E13 (patient-derived glioblastoma stem cells of classical subtype)
# protocol: surviving fraction (nuclei count normalised to DMSO); higher = more cells surviving (less toxic)
# condition-set: 4.1 nM; exposure time: 72 h
Counter-ions that a name gives are not always drawn.
Property: surviving fraction; scope: individual molecules
Lab note: write the figure by itself, no unit.

response.value for COc1cc(/C=C/C(=O)N2CCC=CC2=O)cc(OC)c1OC (field: surviving fraction) = 0.958

Record Oc1ccc(OCc2ccccc2)cc1 , field surviving fraction: 1.02

Field surviving fraction (entry C[C@H](Cc1cc2c(c(C(N)=O)c1)N(CCCO)CC2)NCCOc1ccccc1OCC(F)(F)F ) reads 0.879

surviving fraction reading for Nc1ccn([C@@H]2O[C@H](CO)[C@@H](O)[C@@H]2O)c(=O)n1 : 0.893

CC[C@]1(O)C[C@@H]2CN(CCc3c([nH]c4ccccc34)[C@@](C(=O)OC)(c3cc4c(cc3OC)N(C)[C@H]3[C@@](O)(C(=O)OC)[C@H](OC(C)=O)[C@]5(CC)C=CCN6CC[C@]43[C@@H]65)C2)C1 [Vinblastine sulfate] has a reported surviving fraction of 0.22

// sample CN1C(=O)[C@@]23C[C@]4([C@]56C[C@@]78SS[C@@](CO)(C(=O)N7[C@H]5Nc5ccccc56)N(C)C8=O)c5ccccc5N[C@@H]4N2C(=O)[C@]1(CO)SS3 , its surviving fraction was 0.552

// surviving fraction lookup, molecule = CCCCCCCCCCCCCC(=O)O[C@@H]1[C@@H](C)[C@@]2(O)[C@@H](C=C(CO)C[C@]3(O)C(=O)C(C)=C[C@@H]23)[C@@H]2C(C)(C)[C@]12OC(C)=O [Phorbol 12-myristate 13-acetate] , result: 0.681

So, Cc1cc(Nc2cc(CN3CCOCC3)c3nc(C)c(Cc4ccc(Cl)cc4F)n3n2)n[nH]1 ? Its surviving fraction was 1.02

Sure, the documented surviving fraction for COc1cc(N)c(Cl)cc1C(=O)NC1CCN(CCCOc2ccc(F)cc2)CC1OC (centres undefined) [Cisapride] is 1.06

Record COc1cccc2c1C(=O)c1c(O)c3c(c(O)c1C2=O)C[C@@](O)(C(=O)CO)C[C@@H]3O[C@H]1C[C@H](N)[C@H](O[C@@H]2CCCCO2)[C@H](C)O1 . Reported surviving fraction: 0.384

The reported value for Nc1ccn([C@@H]2O[C@H](CO)[C@@H](O)C2(F)F)c(=O)n1 [Gemcitabine HCl] in terms of surviving fraction is 0.327

# surviving fraction (molecule: CNc1ccc2oc(C[C@H]3O[C@@]4(CC[C@H]3C)O[C@H]([C@H](C)C(=O)c3ccc[nH]3)[C@H](C)C[C@H]4C)nc2c1C(=O)O ) is 0.894

# molecule CN(C(=O)CN(CCO)CC(=O)N(C)C(C)(C)Cc1ccccc1)C(C)(C)Cc1ccccc1 ; its surviving fraction = 1.09

COc1ccc([C@@H]2CC(=O)c3c(O)cc(O[C@@H]4O[C@H](CO[C@@H]5O[C@@H](C)[C@H](O)[C@@H](O)[C@H]5O)[C@@H](O)[C@H](O)[C@H]4O)cc3O2)cc1O yielded surviving fraction of 0.863

Recorded result, CC[N+](CC)(CC)CCOc1ccc(/C=C/c2ccccc2)cc1 , surviving fraction: 0.872

According to the records, this molecule COC(=O)Nc1nc2cc(Sc3ccccc3)ccc2[nH]1 displays surviving fraction of 1.02

Input CC(C)NCC(O)c1cc(O)cc(O)c1 (centres undefined) [Metaproterenol sulfate, orciprenaline sulfate] . Output surviving fraction: 0.979

# molecule Nc1ncn(C2OC(CO)C(O)C2O)c(=O)n1 (centres undefined) ; its surviving fraction = 0.948

So for Clc1ccc(C(Cn2ccnc2)OCc2ccsc2Cl)c(Cl)c1 (centres undefined) , the logged surviving fraction turned out to be 0.996

---

# Test system: E13
# protocol: phenotypic distance (Euclidean, principal components) from DMSO controls (arbitrary units); higher = stronger morphological change
# condition-set: 3000 nM; exposure time: 72 h
Each entry below carries its reported phenotypic distance.
Keep the answer to the number alone.

Some compounds with recorded phenotypic distance:
compound | measured-property | test-result
COc1nc(C)nc(Cl)c1NC1=NCCN1 [Moxonidine] | phenotypic distance | 0.37
O=C(/C=C\n1cnc(-c2cc(C(F)(F)F)cc(C(F)(F)F)c2)n1)NNc1cnccn1 [Selinexor] | phenotypic distance | 4.73
CN(C)C(=O)Oc1ccc[n+](C)c1 [Pyridostigmine iodide] | phenotypic distance | 1.1
COc1ccc(/C=C\c2cc(OC)c(OC)c(OC)c2)cc1OP(=O)(O)O [Fosbretabulin Disodium] | phenotypic distance | 7.96
C/C=C(\C)C(=O)N[C@@H](c1ccccc1)[C@@H](O)C(=O)O[C@H]1C[C@@]2(O)[C@@H](OC(=O)c3ccccc3)[C@@H]3[C@]4(OC(C)=O)CO[C@@H]4C[C@H](O)[C@@]3(C)C(=O)[C@H](OC(C)=O)C(=C1C)C2(C)C [Cephalomannine] | phenotypic distance | 5.58
COc1cc2c(cc1-c1c(C)noc1C)ncc1[nH]c(=O)n([C@H](C)c3ccccn3)c12 | phenotypic distance | 3.72

The recorded phenotypic distance for entry COc1cccc2c1C(=O)c1c(O)c3c(c(O)c1C2=O)C[C@@](O)(C(=O)CO)C[C@@H]3O[C@H]1C[C@H](N)[C@H](O[C@@H]2CCCCO2)[C@H](C)O1 [Pirarubicin] equals 6.07

So for CC1(C)S[C@@H]2[C@H](NC(=O)Cc3ccccc3)C(=O)N2[C@H]1C(=O)O [Benzylpenicillin sodium] , the logged phenotypic distance turned out to be 0.985

Measured phenotypic distance, COc1cc2ncnc(Nc3cccc(Br)c3)c2cc1OC : 1.27

---

Below is a list of entries, each paired with its recorded surviving fraction value.
# System: FT3469 (normal neural stem cell line)
# protocol: surviving fraction (nuclei count normalised to DMSO); higher = more cells surviving (less toxic)
# condition-set: 37 nM; exposure time: 72 h
Give the value as a plain number.

compound | target-or-system | surviving fraction
Clc1ccc(COC(Cn2ccnc2)c2ccc(Cl)cc2Cl)cc1 (stereo not drawn) [Econazole nitrate] | FT3469 | 1.04

Looking up CCN1CCN(C(=O)Cc2ccc(Nc3ncc(F)c(Nc4ccc(C(=O)Nc5ccccc5Cl)cc4)n3)cc2)CC1 , I found its surviving fraction recorded as 0.866

// surviving fraction value for Clc1ccc(COC(Cn2ccnc2)c2ccc(Cl)cc2Cl)c(Cl)c1 (stereo not drawn) : 0.966

---

# Test system: E34 (patient-derived glioblastoma stem cells of proneural subtype)
# protocol: phenotypic distance (Euclidean, principal components) from DMSO controls (arbitrary units); higher = stronger morphological change
# condition-set: 4.1 nM; exposure time: 72 h
Counter-ions that a name gives are not always drawn.
# phenotypic distance >= 1 gives 1.0, anything below gives 0.0

compound | label-class
CSc1ccc2c(c1)N(CCC1CCCCN1C)c1ccccc1S2 (stereo unspecified) [Thioridazine hydrochloride] | 1.0

# input Determine whether measured phenotypic distance meets or exceeds 1 for Nc1nc2n[nH]nc2c(=O)[nH]1
# output 0.0

# input Please indicate if the recorded phenotypic distance for O=C(/C=C/c1cccnc1)NCCCCC1CCN(C(=O)c2ccccc2)CC1 meets or exceeds 1.
# output 1.0

# input Can C=CC(=O)Nc1cccc(Oc2nc(Nc3ccc(N4CCN(C)CC4)cc3)nc3ccsc23)c1 be said to have phenotypic distance at or above 1?
# output 0.0

# input Exam item: decide whether the reported phenotypic distance for CN(C)CCN(Cc1ccc(Cl)cc1)c1ccccn1 [Chloropyramine hydrochloride] is at least 1.
# output 1.0

# input Can CCc1c2c(nc3ccc(OC(=O)N4CCC(N5CCCCC5)CC4)cc13)-c1cc3c(c(=O)n1C2)COC(=O)[C@]3(O)CC be said to have phenotypic distance at or above 1?
# output 0.0

# input Evaluate N=C(N)NCc1cccc(I)c1 [Iobenguane sulfate] : phenotypic distance at minimum 1?
# output 0.0

# input For this compound, is measured phenotypic distance 1 or higher? CNCCCC12CCC(c3ccccc31)c1ccccc12 [Maprotiline hydrochloride]
# output 0.0

# input // inclusive: phenotypic distance at least 1? input: CC(=O)O[C@@]12CO[C@@H]1C[C@H](O)[C@@]1(C)C(=O)[C@H](O)C3=C(C)[C@@H](OC(=O)[C@H](O)[C@@H](NC(=O)OC(C)(C)C)c4ccccc4)C[C@@](O)([C@@H](OC(=O)c4ccccc4)[C@H]21)C3(C)C
# output 1.0

---

# Tested on: E21 (patient-derived glioblastoma stem cells of mesenchymal subtype)
# protocol: phenotypic distance (Euclidean, principal components) from DMSO controls (arbitrary units); higher = stronger morphological change
# condition-set: 111.1 nM; exposure time: 72 h
Overview of reported phenotypic distance across a group of molecules:

The cases that follow already have their phenotypic distance on record.
smiles-record | target-or-system | phenotypic distance
O=C(C1CC1)N1CC[C@@H](Cc2n[nH]c(=O)n2-c2ccc(-c3ccc4occc4c3)cc2)C1 | E21 | 2.65
Nc1nc(Cl)nc2c1ncn2[C@@H]1O[C@H](CO)[C@@H](O)[C@@H]1F | E21 | 2.15
COc1cccc2c1C(=O)c1c(O)c3c(c(O)c1C2=O)C[C@@](O)(C(=O)CO)C[C@@H]3O[C@H]1C[C@H](N)[C@H](O[C@@H]2CCCCO2)[C@H](C)O1 | E21 | 6.76

phenotypic distance reading for COc1ccc([C@@H]2CC(=O)c3c(O)cc(O[C@@H]4O[C@H](CO[C@@H]5O[C@@H](C)[C@H](O)[C@@H](O)[C@H]5O)[C@@H](O)[C@H](O)[C@H]4O)cc3O2)cc1O : 0.825
